target: SlyA (Salmonella enterica)
Sequence (P40676 whole entry): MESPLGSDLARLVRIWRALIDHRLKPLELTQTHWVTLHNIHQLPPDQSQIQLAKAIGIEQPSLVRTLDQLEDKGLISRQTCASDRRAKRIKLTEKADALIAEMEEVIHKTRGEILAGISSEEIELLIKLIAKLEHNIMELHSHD
pKd: −log10 of the molar value.

compound	pKd
O=C(O)c1ccccc1 [benzoate]	~4.40

Each recorded value in this set is attributed to paper PMC6401476.
